Tested on: HOP-62 NSCLC
method description: NCI-60 one-dose screen, 48 h
test conditions: 10 µM unless noted
Experimental: Growth inhibition of the HOP-62 human Non-Small Cell Lung tumor cell line is measured as a screen for anti-cancer activity. Cells are grown in 96 well plates and exposed to the test compound for 48 hours. Compounds are tested at a single concentration, which is 10^-5 M for most compounds. The reported endpoint is percent growth (GI% or GIPRCNT), where numbers from 0 - 100% represent growth inhibition, and numbers from -100% - 0 represent cell death. […]
The panel holds about 83,000 compounds, 20% with a hit somewhere; the sample as a whole holds those more often. The source made the active and inactive calls. How the source made its calls: active means growth percent below 10; inactive means the rest.
Outcomes: active, inactive

[[record]]
molecule = "CCCCC/C=C/C(C)=C/C1CC(C)C/C=C/CCC(O)C(OC(N)=O)CCC(C)CC(O)C(C)C(=O)O1 (stereo not drawn)"
category_label = "inactive"

[[record]]
molecule = "O=C1c2cccc3c(-c4ccc5c(c4)ncn5C4CCCCC4)ccc(c23)C(=O)N1c1nc2ccccc2s1"
category_label = "inactive"

[[record]]
molecule = "C=C(C)[C@@H]1CC[C@]2(C(=O)N3CCN(C)CC3)CC[C@]3(C)[C@H](CC[C@@H]4[C@@]5(C)C/C(=C/c6cccnc6)C(=O)C(C)(C)[C@@H]5CC[C@]43C)[C@@H]12"
category_label = "inactive"

[[record]]
molecule = "Cc1c(C)c([N+](=O)[O-])c(C)c([N+](=O)[O-])c1C"
category_label = "inactive"

[[record]]
molecule = "O=C1Nc2cc(-c3cccc(O)c3)ccc2/C1=C/c1ccc[nH]1"
category_label = "inactive"

[[record]]
molecule = "O=C1c2ccc3c4c(ccc(c24)C(=O)N1CCCNCc1ccccc1F)C(=O)N(CCCNCc1ccccc1F)C3=O"
category_label = "active"

[[record]]
molecule = "O=C1NN(C(=O)c2ccccc2)C(c2ccc(Cl)c(Cl)c2)=C/C1=C\\c1ccc([N+](=O)[O-])cc1"
category_label = "inactive"

[[record]]
molecule = "COc1ccc(-c2nc([C@@H](C)Sc3nc(N)cc(N)n3)c(C)s2)cc1OCCN1CCOCC1"
category_label = "inactive"

[[record]]
molecule = "C=C(C)[C@@H]1CC[C@]2(CN)CC[C@]3(C)[C@H](CC[C@@H]4[C@@]5(C)CCCNC(C)(C)[C@@H]5CC[C@]43C)[C@@H]12"
category_label = "inactive"

[[record]]
molecule = "Cc1cc(C(=O)/C=C/c2ccc[nH]2)ccc1-n1ccc(C(F)(F)F)n1"
category_label = "inactive"

[[record]]
molecule = "Cc1cc2cc3ccc(N(C)C)cc3nc2cc1N"
category_label = "active"

[[record]]
molecule = "Nc1nc(Nc2ccccc2SSc2ccccc2Nc2nc(N)nc(-c3cccs3)n2)nc(-c2ccsc2)n1"
category_label = "active"

[[record]]
molecule = "COc1cc(/C=C\\c2cc(/C=C\\c3ccc(O)c(OC)c3)n(C(=O)COc3ccccc3)n2)ccc1O"
category_label = "active"

[[record]]
molecule = "COc1ccc(NC(=O)c2cc(NCc3cc(O)ccc3O)ccc2O)cc1"
category_label = "inactive"

[[record]]
molecule = "COC(=O)C(CC=O)C(=O)C(=O)Nc1cccc(C(F)(F)F)c1 (stereo not drawn)"
category_label = "inactive"

[[record]]
molecule = "COC(=O)C(OC(C)=O)C(OC(C)=O)c1ccc(OC)c(OC)c1 (stereo not drawn)"
category_label = "inactive"

[[record]]
molecule = "COc1cc2nc(-c3ccc(Cl)cc3)cc(OCCCN3CCCC3)c2cc1OC"
category_label = "inactive"

[[record]]
molecule = "COC(=O)C1=C(C(=O)ON)[C@@H]2C=C[C@@]1([C@@H](Cc1ccccc1)Nc1ccccc1)O2"
category_label = "inactive"


====

Test system: SK-OV-3 ovarian
method description: NCI-60 one-dose screen, 48 h (100 = growth as untreated, 0 = no growth, -100 = all killed)
test conditions: 10 µM unless noted
The panel holds about 83,000 compounds, 20% with a hit somewhere; the sample as a whole holds those more often.
assay readout: growth (%)

[[record]]
smiles_code = "COc1cc2cc(CN3CCN(c4nccc(-c5ccc6ccccc6c5)n4)CC3)c(=O)[nH]c2cc1OC"
assay_target = "SK-OV-3 ovarian"
data_value = 99.6

[[record]]
smiles_code = "CCN(Cc1ccccc1)c1ccc(C=O)cc1"
assay_target = "SK-OV-3 ovarian"
data_value = 103

[[record]]
smiles_code = "C[C@H](c1nc2ccc(N)cc2[nH]1)[C@H]1CC[C@H]2[C@@H]3CCC4=CC(=O)CC[C@]4(C)[C@H]3CC[C@]12C"
assay_target = "SK-OV-3 ovarian"
data_value = 91.2

[[record]]
smiles_code = "O=S(=O)(NCCNc1nccc(-c2c(-c3cccc(O)c3)nc3occn23)n1)c1cccc(F)c1"
assay_target = "SK-OV-3 ovarian"
data_value = 91.8

[[record]]
smiles_code = "Cc1ccc(NC(=O)c2cc(-c3nc4ccccc4s3)c(=O)n(NS(=O)(=O)c3ccc(Cl)cc3)c2N)cc1"
assay_target = "SK-OV-3 ovarian"
data_value = 108

[[record]]
smiles_code = "Cc1cccc(NC(=O)Nc2ccc(-n3cnc4cc(-c5ccc(O)cc5)ccc43)cc2)c1"
assay_target = "SK-OV-3 ovarian"
data_value = 60.3

[[record]]
smiles_code = "COc1ccc(C(=O)CC#N)cc1"
assay_target = "SK-OV-3 ovarian"
data_value = 112

[[record]]
smiles_code = "O=C(c1nnc(Nc2ccccc2Br)o1)c1c[nH]c2ccccc12"
assay_target = "SK-OV-3 ovarian"
data_value = 83

[[record]]
smiles_code = "CNC(=O)c1cncc(Cn2nc(C)c(NC(=O)c3ccc(COc4ccc(C(F)(F)F)cc4C)cc3)c2C)c1"
assay_target = "SK-OV-3 ovarian"
data_value = 76.7


====

Test system: SF-539 CNS
method description: NCI-60 one-dose screen, 48 h
test conditions: 10 µM unless noted
Compounds without any hit were thinned out: in the full panel of roughly 83,000, 20% have a hit. Calls of active or inactive are those of the source. How the source made its calls: active means growth percent below 10; inactive means the rest.
Labels: 1.0 (active), 0.0 (inactive)

[[record]]
molecule = "O=C(CCN1CCCC1)Nc1ccc2c(NCCCCc3ccccc3)c3ccccc3nc2c1"
category_label = 1.0

[[record]]
molecule = "Cc1ccccc1NS(=O)(=O)c1cccc(C(=O)Nc2ccc(Br)cc2)c1"
category_label = 0.0

[[record]]
molecule = "CCCCCN1C=C/C(=C\\C(=O)N(C)c2ccc(Oc3ccccc3)cc2)c2ccccc21"
category_label = 0.0

[[record]]
molecule = "O=C(/C=C/c1ccc[nH]1)c1ccc(-n2ccc(C(F)(F)F)n2)c(F)c1"
category_label = 0.0

[[record]]
molecule = "COc1cc(NC(C)CCCNC(=O)CCC(=O)NCCCNCCCCCCCCNCCCNC(=O)CCC(=O)NCCCC(C)Nc2cc(OC)cc3cccnc23)c2ncccc2c1 (centres undefined)"
category_label = 0.0

[[record]]
molecule = "O=C1c2ccccc2CCC12OC2c1cn(-c2ccccc2)nc1-c1ccc(Cl)cc1 (centres undefined)"
category_label = 0.0

[[record]]
molecule = "O=C1c2ccccc2C(=O)c2c([N+](=O)[O-])ccc(Cl)c21"
category_label = 0.0

[[record]]
molecule = "CC1=C(C(=O)/C=C/c2ccc(N(C)C)cc2)C(c2ccccc2)NC(=S)N1 (centres undefined)"
category_label = 0.0

[[record]]
molecule = "CCCOC(=O)N[C@H]1CCc2cc(OC)c(OC)c(OC)c2-c2ccc(SC)c(=O)cc21"
category_label = 1.0


====

System: DU-145 prostate
method description: NCI-60 one-dose screen, 48 h (100 = growth as untreated, 0 = no growth, -100 = all killed)
test conditions: 10 µM unless noted
This is part of a sample that, as a whole, favours compounds with a hit. Of some 83,000 tested, about 20% had one in any assay. Calls of active or inactive are those of the source. How the source made its calls: active means growth percent below 10; inactive means the rest.
growth listing for selected compounds.
assay readout: growth

[[record]]
smiles_code = "COc1cc2oc(-c3cccc(C(=O)Nc4ccccc4)c3)cc(=O)c2c(O)c1OC"
assay_readout = "growth"
data_value = "65.6% (inactive)"

[[record]]
smiles_code = "C[C@H]1[C@H](C)CC[C@]2(C(=O)Nc3ccc4ncccc4c3)CC[C@]3(C)C(=CC[C@@H]4[C@@]5(C)CCCNC(C)(C)[C@@H]5CC[C@]43C)[C@H]12"
assay_readout = "growth"
data_value = "-74.1% (active)"

[[record]]
smiles_code = "CC[C@]12C=CCN3CC[C@@]4(c5cc(NC(=O)CCC(=O)O[C@H]6CC[C@H]7[C@@H]8CCC9=CC(=O)CC[C@@H]9[C@H]8CC[C@]67C)c(OC)cc5N(C)[C@H]4[C@@](O)(C(=O)OC)[C@@H]1OC(C)=O)[C@@H]32"
assay_readout = "growth"
data_value = "82.2% (inactive)"

[[record]]
smiles_code = "CCOC(=O)c1ccc2c(c1)ncn2-c1ccc(NC(=O)Nc2cccc(C)c2)cc1"
assay_readout = "growth"
data_value = "71.9% (inactive)"

[[record]]
smiles_code = "COc1ccc(C(=O)NNc2nc(Cl)nc(N3CCN(C(c4ccccc4)c4ccccc4)CC3)n2)cc1"
assay_readout = "growth"
data_value = "67.7% (inactive)"

[[record]]
smiles_code = "COc1ccc(C(=O)c2cc(OC)c(OC)c(OC)c2)cc1O"
assay_readout = "growth"
data_value = "9.94% (active)"

[[record]]
smiles_code = "O=C(Nc1ccc(F)cc1)Nc1ccc(NC(=O)c2cc(Cl)nc3ccccc23)cc1"
assay_readout = "growth"
data_value = "57% (inactive)"

[[record]]
smiles_code = "Cc1cc(C(=O)/C=C/c2ccc[nH]2)ccc1-n1ccc(C(F)(F)F)n1"
assay_readout = "growth"
data_value = "96% (inactive)"

[[record]]
smiles_code = "CCOC(=O)c1cc(C(=O)c2ccc(Br)cc2)n2ccc(/C=C/c3cc[n+](CC(=O)c4ccc(OC)cc4)cc3)cc12"
assay_readout = "growth"
data_value = "87% (inactive)"

[[record]]
smiles_code = "COc1cc(F)c(/C=C/c2cc(/C=C/c3cc(OC)c(OC)cc3F)on2)cc1OC"
assay_readout = "growth"
data_value = "88.2% (inactive)"

[[record]]
smiles_code = "C=C(C)[C@@H]1CC[C@]2(C(=O)N3CCN(C)CC3)CC[C@]3(C)[C@H](CC[C@@H]4[C@@]5(C)C/C(=C/c6cccnc6)C(=O)C(C)(C)[C@@H]5CC[C@]43C)[C@@H]12"
assay_readout = "growth"
data_value = "74% (inactive)"

[[record]]
smiles_code = "O=C1Nc2cc(-c3cccc(O)c3)ccc2/C1=C/c1ccc[nH]1"
assay_readout = "growth"
data_value = "33.8% (inactive)"

[[record]]
smiles_code = "O=C(C[n+]1cccc2ccccc21)c1ccc(O)c(O)c1"
assay_readout = "growth"
data_value = "84.8% (inactive)"

[[record]]
smiles_code = "COc1ccc(/C=C/c2nc(Nc3cccc(NC(C)=O)c3)c3ccccc3n2)cc1"
assay_readout = "growth"
data_value = "88.7% (inactive)"

[[record]]
smiles_code = "Oc1ccc(C2c3ccccc3Oc3ccccc32)c2cccnc12"
assay_readout = "growth"
data_value = "31.2% (inactive)"

[[record]]
smiles_code = "C=C(CBr)[C@@H]1CC[C@]2(COC(C)=O)CC[C@]3(C)[C@H](CC[C@@H]4[C@@]5(C)CCCNC(C)(C)[C@@H]5CC[C@]43C)[C@@H]12"
assay_readout = "growth"
data_value = "66.3% (inactive)"

[[record]]
smiles_code = "Cc1ccc(-c2[nH][nH]c(=O)c2-c2nc3ccccc3s2)cc1"
assay_readout = "growth"
data_value = "111% (inactive)"

